Hello, the source for this data is ChEMBL document CHEMBL1137334, in case you need it.

studyTarget: Vascular endothelial growth factor receptor 2 (Homo sapiens)
pIC50: −log10 of the molar value.
measuredQuantity: pIC50

Some molecules with known pIC50 results, for comparison:
> print(dat)
                          structurenotation  measuredquantity  observedvalue
1  c1cc(Nc2ncnc3cc(OCCCN4CCCC4)cc(OC4CCOCC4)c23)c2c(c1)OCO2             pIC50           7.00
2  CN1CCN(CCOc2cc(OC3CCOCC3)c3c(Nc4c(Cl)ccc5c4OCO5)ncnc3c2)CC1             pIC50           4.68
3  c1cc(Nc2ncnc3cc(OCCN4CCCC4)cc(OC4CCOCC4)c23)c2c(c1)OCCO2             pIC50           7.30

I: CC(C)Oc1cc(OCCN2CCOCC2)cc2ncnc(Nc3c(Cl)ccc4c3OCO4)c12
II: c1cc(Nc2ncnc3cc(OCCN4CCCC4)cc(OC4CCOCC4)c23)c2c(c1)OCO2
Input: Which of the two gives a bigger number for pIC50: I or II ? Your answer should be the label attached to the chosen record.
Output: II

====

methodSummary: Percent of unbound ligand in dog plasma
Type: ADME, organism-based, Canis lupus familiaris
Entries and their measured fraction unbound follow.
Keep the answer to the number alone.

> print(dat)
                          structurenotation  observedvalue
1  CN1CCN(CCOc2cc(OC3CCOCC3)c3c(Nc4c(Cl)ccc5c4OCO5)ncnc3c2)CC1           0.14

Please look at the following molecule next.
Input: Look at this molecule and give its reported fraction unbound. Clc1ccc2c(c1Nc1ncnc3cc(OCCCN4CCCC4)cc(OC4CCOCC4)c13)OCO2
Output: 0.17

====

methodSummary: Volume of distribution in rat at 20 mg/kg, po and 2 mg/kg, iv
Assay type: ADME, organism-based
conditionsUsed: in vivo, read-out: Vdss
measuredQuantity: Vd (L/kg)
Expressed in L/kg, but write only the number.

Input: Look at this compound and give its reported Vd. Clc1ccc2c(c1Nc1ncnc3cc(OCCCN4CCCC4)cc(OC4CCOCC4)c13)OCO2
Output: 15

====

Entries and their measured pIC50 follow.
studyTarget: 3-phosphoinositide-dependent protein kinase 1 (Homo sapiens, UniProt O15530)
Sequence (O15530 whole entry): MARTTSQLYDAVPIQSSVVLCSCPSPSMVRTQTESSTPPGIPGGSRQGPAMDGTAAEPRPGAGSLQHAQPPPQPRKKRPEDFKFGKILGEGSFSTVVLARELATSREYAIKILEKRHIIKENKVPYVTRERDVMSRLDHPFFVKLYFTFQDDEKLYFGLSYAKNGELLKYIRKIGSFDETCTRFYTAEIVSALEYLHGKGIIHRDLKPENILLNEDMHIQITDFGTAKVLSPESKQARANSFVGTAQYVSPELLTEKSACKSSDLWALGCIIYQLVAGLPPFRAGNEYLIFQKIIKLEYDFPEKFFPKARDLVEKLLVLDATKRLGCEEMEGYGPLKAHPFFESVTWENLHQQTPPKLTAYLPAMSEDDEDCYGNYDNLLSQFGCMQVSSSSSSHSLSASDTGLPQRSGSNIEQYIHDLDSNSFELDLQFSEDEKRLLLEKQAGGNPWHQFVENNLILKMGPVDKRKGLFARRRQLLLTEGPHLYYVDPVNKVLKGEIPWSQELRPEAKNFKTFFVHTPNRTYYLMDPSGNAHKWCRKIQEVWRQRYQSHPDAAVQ
pIC50: −log10 of the molar value.

> print(dat)
                          structurenotation                               studytarget  observedvalue
1  Clc1ccc2c(c1Nc1ncnc3cc(OCCCN4CCCC4)cc(OC4CCOCC4)c13)OCO2  3-phosphoinositide-dependent protein kinase 1 (Homo sapiens, UniProt O15530)         < 5.00

Input: Look at this compound and give its reported pIC50. CN1CCN(CCOc2cc(OC3CCOCC3)c3c(Nc4c(Cl)ccc5c4OCO5)ncnc3c2)CC1
Output: < 5.00

====

methodSummary: Half life in rat at 20 mg/kg, po and 2 mg/kg, iv
Assay type: ADME, organism-based
conditionsUsed: in vivo
measuredQuantity: half-life (h)
Expressed in h, but write only the number.

Input: Look at this compound and give its reported half-life. Clc1ccc2c(c1Nc1ncnc3cc(OCCCN4CCCC4)cc(OC4CCOCC4)c13)OCO2
Output: 3.5

====

studyTarget: Proto-oncogene tyrosine-protein kinase Src (Homo sapiens)
Sequence (P12931 2-536 limits assumed): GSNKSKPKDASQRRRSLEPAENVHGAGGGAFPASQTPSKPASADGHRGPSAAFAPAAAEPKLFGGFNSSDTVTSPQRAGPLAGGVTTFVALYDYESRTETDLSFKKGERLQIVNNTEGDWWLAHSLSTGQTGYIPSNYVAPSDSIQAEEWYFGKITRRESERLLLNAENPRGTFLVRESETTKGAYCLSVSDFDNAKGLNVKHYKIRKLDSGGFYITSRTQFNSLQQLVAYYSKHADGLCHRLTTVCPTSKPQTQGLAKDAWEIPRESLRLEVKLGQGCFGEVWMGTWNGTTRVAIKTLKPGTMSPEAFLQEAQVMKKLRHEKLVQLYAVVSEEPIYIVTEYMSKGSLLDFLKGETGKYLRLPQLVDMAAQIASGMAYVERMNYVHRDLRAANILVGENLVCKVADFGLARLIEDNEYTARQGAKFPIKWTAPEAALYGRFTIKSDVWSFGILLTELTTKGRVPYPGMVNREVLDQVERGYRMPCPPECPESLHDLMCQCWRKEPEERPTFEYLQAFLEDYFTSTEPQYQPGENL
Entries and their measured IC50 follow.

Some compounds with known IC50 results, for comparison:
> print(dat)
                                   compound  measuredquantity  observedvalue
1  CC(C)Oc1cc(OCCCN2CCCC2)cc2ncnc(Nc3c(Cl)ccc4c3OCO4)c12              IC50         < 4 nM
2  COc1ccc(Cl)c(Nc2ncnc3cc(OCCCN4CCN(C)CC4)cc(OC4CCOCC4)c23)c1              IC50         < 4 nM
3  COc1ccc(Cl)c(Nc2ncnc3cc(OCCCN4CCOCC4)cc(OC4CCOC4)c23)c1 (racemic)              IC50         < 4 nM
4  CN1CCN(CCCOc2cc(OC3CCOCC3)c3c(Nc4c(Cl)ccc5c4OCO5)ncnc3c2)CC1              IC50         < 4 nM

Input: Given the entry Clc1ccc2c(c1Nc1ncnc3cc(OCCCN4CCCC4)cc(OC4CCOCC4)c13)OCO2 , what IC50 was observed with Proto-oncogene tyrosine-protein kinase Src (Homo sapiens)?
Output: < 4 nM

====

studyTarget: Vascular endothelial growth factor receptor 2 (Homo sapiens, UniProt P35968)
Sequence (P35968 whole entry): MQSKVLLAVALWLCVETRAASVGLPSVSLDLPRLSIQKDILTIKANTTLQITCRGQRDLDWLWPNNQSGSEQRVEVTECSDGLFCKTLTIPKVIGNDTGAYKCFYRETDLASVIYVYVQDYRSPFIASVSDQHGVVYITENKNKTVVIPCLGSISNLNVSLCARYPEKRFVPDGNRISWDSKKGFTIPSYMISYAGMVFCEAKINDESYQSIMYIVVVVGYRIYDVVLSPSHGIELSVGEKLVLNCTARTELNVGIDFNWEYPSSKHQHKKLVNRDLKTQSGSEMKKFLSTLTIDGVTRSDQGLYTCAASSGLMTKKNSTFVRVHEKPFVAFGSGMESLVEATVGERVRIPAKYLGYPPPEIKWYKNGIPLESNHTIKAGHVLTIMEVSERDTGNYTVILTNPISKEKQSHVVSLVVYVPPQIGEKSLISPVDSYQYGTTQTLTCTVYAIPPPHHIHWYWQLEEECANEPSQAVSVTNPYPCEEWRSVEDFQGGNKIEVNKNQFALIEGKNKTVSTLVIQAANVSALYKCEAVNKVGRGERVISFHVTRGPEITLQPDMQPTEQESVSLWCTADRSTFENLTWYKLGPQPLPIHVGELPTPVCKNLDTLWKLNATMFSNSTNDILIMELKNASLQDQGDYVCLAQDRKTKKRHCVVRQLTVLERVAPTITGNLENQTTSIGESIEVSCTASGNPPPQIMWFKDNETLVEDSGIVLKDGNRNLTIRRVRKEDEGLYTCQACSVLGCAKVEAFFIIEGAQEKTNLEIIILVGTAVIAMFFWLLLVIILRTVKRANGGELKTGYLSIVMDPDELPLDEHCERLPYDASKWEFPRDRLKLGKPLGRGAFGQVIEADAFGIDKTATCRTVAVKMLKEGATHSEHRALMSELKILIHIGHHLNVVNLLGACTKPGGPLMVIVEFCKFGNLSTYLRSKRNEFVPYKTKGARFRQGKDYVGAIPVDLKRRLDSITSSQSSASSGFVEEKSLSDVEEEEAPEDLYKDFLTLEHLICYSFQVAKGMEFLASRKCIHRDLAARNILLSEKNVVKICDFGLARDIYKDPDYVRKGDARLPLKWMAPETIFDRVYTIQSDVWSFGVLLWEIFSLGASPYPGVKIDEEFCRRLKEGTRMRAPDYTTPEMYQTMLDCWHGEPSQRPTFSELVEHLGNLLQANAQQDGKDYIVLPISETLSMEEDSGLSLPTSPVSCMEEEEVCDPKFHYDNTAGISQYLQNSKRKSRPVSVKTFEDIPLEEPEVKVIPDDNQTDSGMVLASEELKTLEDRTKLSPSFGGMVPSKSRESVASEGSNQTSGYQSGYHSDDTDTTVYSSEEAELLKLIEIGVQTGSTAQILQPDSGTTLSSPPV
measuredQuantity: IC50

> print(dat)
                          structurenotation                               studytarget  observedvalue
1  Clc1ccc2c(c1Nc1ncnc3cc(OCCc4ccncc4)cc(OC4CCOCC4)c13)OCO2  Vascular endothelial growth factor receptor 2 (Homo sapiens, UniProt P35968)         > 5 µM

Input: Look at this compound and give its reported IC50. CC(C)COc1cc(OC2CCN(C)CC2)c2c(Nc3c(Cl)ccc4c3OCO4)ncnc2c1
Output: > 10 µM

Input: Repeat for the following compound: Clc1ccc2c(c1Nc1ncnc3cccc(Oc4ccncc4)c13)OCO2
Output: > 33 µM

Input: Repeat for the following compound: COc1ccc(Cl)c(Nc2ncnc3cc(OC)cc(OC4CCN(C)CC4)c23)c1
Output: > 2 µM
